- System: LXFL 529 NSCLC
- experimentalDetails: NCI tumour cell line growth inhibition, 48 h
Would you kindly list TGI for each of these compounds?

Exam item: What does the record list as TGI for O=C1Oc2cc3c(c4cccc1c24)OCN(c1ccc(Cl)cc1)C3 ?
Marked response: 25 µM

Exam item: What does the record list as TGI for O=S(=O)(O)C(O)/C=C/c1ccccc1 (configuration not stated) ?
Marked response: > 100 µM

Exam item: What does the record list as TGI for COc1ccc(N=Cc2cc(OC)c(OC)c(OC)c2)cc1 ?
Marked response: > 100 µM

Exam item: What does the record list as TGI for O=c1[nH]c(=O)n(C2CC(O)C(CO)O2)cc1C#Cc1c(F)c(F)c(F)c(F)c1F (configuration not stated) ?
Marked response: > 100 µM

Exam item: What does the record list as TGI for COc1cc2c(cc1OC)C1C=NC(C(=O)O)(C2)c2ccccc21 (configuration not stated) ?
Marked response: > 100 µM

Exam item: What does the record list as TGI for COc1cc2c(c(O)c1C)C(=O)C(Cl)=CC2=O ?
Marked response: 19.4 µM

Exam item: What does the record list as TGI for O=C(N/N=C/c1cccc(O)c1O)N/N=C/c1cccc(O)c1O ?
Marked response: > 100 µM

Exam item: What does the record list as TGI for CCOC(=O)CCCO ?
Marked response: > 100 µM

Exam item: What does the record list as TGI for CN(C)c1ccc(/C=C2\C[N+](C)(C)C/C(=C\c3ccc(N(C)C)cc3)C2=O)cc1 ?
Marked response: 20.4 µM

Exam item: What does the record list as TGI for CCC1CCC2CCCC(C)N12 (configuration not stated) ?
Marked response: > 100 µM

Exam item: What does the record list as TGI for CC(C)(C)C1=NC(S)NC(CCC(=O)Nc2ccccc2[N+](=O)[O-])=C1 (configuration not stated) ?
Marked response: > 100 µM

Exam item: What does the record list as TGI for C/C(=N\NC(N)=S)c1ccc(C)cc1C ?
Marked response: > 100 µM

meta.source: PubChem BioAssay (NCI)
